The entries below come with measured growth values attached.
# Tested on: HT29 colon
# Method summary: NCI-60 one-dose screen, 48 h (100 = growth as untreated, 0 = no growth, -100 = all killed)
# Study conditions: 10 µM unless noted
Compounds without any hit were thinned out: in the full panel of roughly 83,000, 20% have a hit.

Compound	growth [%]
COc1ccc(-c2cn3c(C(=O)Nc4ccccc4Cl)c(-c4ccccc4)c4c3n2CCCC4)cc1	26
COc1ccc(Br)c(/C=C2\SC(=Nc3ccc(O)cc3)NC2=O)c1	113
COc1ccc(-c2nsc3c2NC(=O)CC3c2ccsc2)cc1 (stereo not given)	0.633
O=NN(Cc1cccnc1)C(=O)NC1CCCCC1	103
CCC1=C[C@@H]2CN(C1)Cc1c([nH]c3ccccc13)[C@@](C(=O)OC)(c1cc3c(cc1OC)N(C)[C@H]1[C@@](O)(C(=O)OC)[C@H](OC(C)=O)[C@]4(CC)[C@@H]5C[C@@H]5CN5CC[C@]31[C@@H]54)C2	-23.3
O=C1OC(c2ccccc2)(c2ccccc2)c2ccsc21	102
CCOC(=O)C1=C(C)N=c2s/c(=C\c3cc(Cl)ccc3O)c(=O)n2C1c1ccc(OC)cc1 (stereo not given)	72.9
COC(=O)[C@H]1CCCN1C(=O)[C@H]1CCCN1C(=O)[C@H](Cc1c[nH]c2ccccc12)NC(=S)Nc1cc(C(F)(F)F)cc(C(F)(F)F)c1	7.55
Cn1nc(C(C)(C)C)cc1NC(=O)Cc1ccc(/C=C2\C(=O)Nc3ccccc32)cc1	58.4
Cc1ccc(S(=O)c2ccc([N+](=O)[O-])c3nonc23)cc1 (stereo not given)	93.8
Nc1ncnc(N)c1NC(=O)c1ccc(OCc2ccccc2)cc1	96.3
CS(=O)(=O)Nc1ccc(C(=O)NC(C(=O)NO)c2ccc(-c3cccc(F)c3)cc2)cc1 (stereo not given)	53.2
CCOC(=O)c1ccc2[nH]c(-c3ccccc3)cc(=O)c2c1	103
CC(C)c1ccc(S(=O)(=O)NC(=O)NC2CCCC2)cc1	108
COc1cccc2c(=O)c3c(sc12)c(NCCCNCCO)nc1ccccc13	-43.8
O=C1c2ccccc2C(=O)c2c1ccc1[nH]c(CCl)nc21	5.78
CCOC(=O)C1=CN(C)C=C(C(=O)OCC)C1c1cc(Br)c(OCC)c(OC)c1	7.46
COC(=O)c1c2c(c(C)[n+]([O-])c1C)C(=O)C(NCc1ccc(F)c(F)c1)=CC2=O	11.6
C[n+]1c2ccccc2nc2ccc(NCCO)cc21	8.37
O=c1cc(-c2ccccc2)oc2cc(OCc3cn(Cc4ccc(F)cc4)nn3)cc(OCc3cn(Cc4ccc(F)cc4)nn3)c12	35.1

====

# Tested on: CAKI-1 renal
# Method summary: NCI-60 one-dose screen, 48 h
# Study conditions: 10 µM unless noted
Compounds without any hit were thinned out: in the full panel of roughly 83,000, 20% have a hit. Activity calls are given as the source filed them. The calls were made as follows: active = growth percent below 10; inactive = the rest.
Labels: T = active, F = inactive

Compound	Test system	Assigned category
C1CCN(c2nc(N3CCCCC3)nc(N3CCOCC3)n2)CC1	CAKI-1 renal	F
CCOc1c(Br)cc(C2C(C(=O)OC)=CN(C)C=C2C(=O)OC)cc1OC	CAKI-1 renal	F
COc1ccc(Cn2c(Br)c3c(c2-c2cc(OC)c(OC)c(OC)c2)CCc2sc(NC(=O)c4ccc(OC)cc4)nc2-3)cc1	CAKI-1 renal	F
CCOC(=O)c1sc(-c2ccc(OS(=O)(=O)c3ccccc3[N+](=O)[O-])c(C=O)c2)nc1C	CAKI-1 renal	F
Cc1cccc2c(=O)c3c(sc12)c(NCCCNCCO)nc1ccccc13	CAKI-1 renal	F
COc1cc(-c2c3c(cn2S(=O)(=O)c2ccccc2)-c2nc(N)sc2CC3)cc(OC)c1OC	CAKI-1 renal	F
O=C(/C=C/c1ccc(F)cc1)c1ccc(Nc2nc(NCCO)nc(Nc3ccc(Cl)cc3)n2)cc1	CAKI-1 renal	F
O=C(Nc1ccc(N2CCNCC2)cc1)c1[nH]ncc1Nc1cc(Oc2ccccc2)ncn1	CAKI-1 renal	F
CCOC(=O)C1=C(C)N=c2s/c(=C\c3ccccc3O)c(=O)n2C1c1ccc(OC)c2ccccc12 (centres undefined)	CAKI-1 renal	T

====

# Test system: MALME-3M melanoma
# Method summary: NCI-60 one-dose screen, 48 h (100 = growth as untreated, 0 = no growth, -100 = all killed)
# Study conditions: 10 µM unless noted
About 83,000 compounds went through this panel and 20% of them were active in at least one assay; those are over-represented in the sample as a whole.
Form field: growth (one value per entry).

Smiles repr	growth (%)
O=C(Nc1ccc(I)cc1F)c1cc(F)ccc1O	-31.4
COC(=O)c1c2c(c(C)[n+]([O-])c1C)C(=O)C(NCc1ccc(F)c(F)c1)=CC2=O	-70.8
CCCc1c(C)c2sc(=O)[nH]c2[nH]c1=O	108
O=C1c2ccc3c4c(ccc(c24)C(=O)N1CCCCO)C(=O)N(CCCCO)C3=O	-7.29
NC(=O)CSc1nc(-c2ccc(F)cc2)cc(-c2ccco2)n1	110
COc1ccc(CCN2C(=O)CCSC2=S)cc1	76.7

====

# Tested on: M14 melanoma
# Method summary: NCI-60 one-dose screen, 48 h
# Study conditions: 10 µM unless noted
Compounds without any hit were thinned out: in the full panel of roughly 83,000, 20% have a hit. Calls of active or inactive are those of the source. The calls were made as follows: active = growth percent below 10; inactive = the rest.
Possible outcomes: YES = active, NO = inactive

Compound	Assigned category
O=[N+]([O-])c1cc2c(ccc3occc32)o1	YES
COc1ccc(-c2nocc2-c2cccs2)cc1	NO
COc1cc2nc(NC3CCCC3)nc(NC3CCN(C(C)C)CC3)c2cc1OC	YES
COc1cc([C@@H]2NC(=O)NC(C)=C2C(=O)Nc2nc(-c3ccc(Cl)cc3)cs2)ccc1O	NO
NC(CCc1nc2ccccc2c(=O)[nH]1)C(=O)O (stereo unspecified)	NO
O=c1cc(NC2CCN(CCCc3ccccc3)CC2)c2cc(Cl)ccc2o1	YES
CCCc1c(C)c2sc(=O)[nH]c2[nH]c1=O	NO
COc1cccc(C(=O)NC(c2ccc(C)cc2)c2cc(Cl)c3cccnc3c2O)c1 (stereo unspecified)	YES
O=C(Cc1ccccc1)NC(c1ccc(Cl)cc1)c1c(O)ccc2ccccc12 (stereo unspecified)	NO
c1ccc2cc3c(Nc4ccc(N5CCOCC5)cc4)ccnc3cc2c1	NO
Cc1cc(Nc2ccc(OCc3ccccc3)cc2)nc2cc(O)ccc12	NO

====

List of growth values.
# System: SF-295 CNS
# Method summary: NCI-60 one-dose screen, 48 h (100 = growth as untreated, 0 = no growth, -100 = all killed)
# Study conditions: 10 µM unless noted
Compounds without any hit were thinned out: in the full panel of roughly 83,000, 20% have a hit.
Reported endpoint: growth (%)

Compound	Value unit	Obs value
COC(=O)c1c2c(c(C)[n+]([O-])c1C)C(=O)C(NCc1ccc(Br)cc1)=CC2=O	%	19.3
O=C(c1ccccc1)N(CCc1ccc(Cl)cc1)C(=S)N(C(=O)c1ccccc1)c1ccccc1	%	109
COc1cccc(C(=O)Cn2cc(/C=C(\C#N)S(=O)(=O)c3ccccc3)c3ccccc32)c1	%	88.8
Cc1ccc(NC2=CC(=O)C(=O)c3ccccc32)c(C)c1	%	34.6
O=C(CCc1nnc2sc(COc3ccccc3)nn12)c1nc2ncccc2[nH]1	%	103
COC(=O)c1cc2c(n1Cc1ccccc1)-c1oncc1CCC2	%	74.7
O=C(Nc1ccc(Cl)cc1F)c1cc(Br)ccc1O	%	-48.3
Nc1nc(-c2cnccn2)nn1-c1nc2ccccc2s1	%	103
CCOc1cccc(/C=N/NC(=O)C(=O)Nc2cccc(C(F)(F)F)c2)c1O	%	10
CC[C@]1(O)C[C@@H]2CN(CCc3c([nH]c4ccccc34)[C@@](C(=O)OC)(c3cc4c(cc3OC)N(C)[C@H]3[C@@](O)(C(=O)OC)[C@H](OC(=O)CCCBr)[C@]5(CC)C=CCN6CC[C@]43[C@@H]65)C2)C1	%	8.8
CCN1C(=O)N(CC)C2C1NN=c1s/c(=C3\C(=O)N(CC(C)(C)C)c4ccccc43)c(=O)n12 (stereo not drawn)	%	15.9
O=C(Nc1ccc(Cl)cc1F)c1cc(I)ccc1O	%	48.4
O=C(Nc1ccc(Br)cc1F)c1cc(Cl)ccc1O	%	-62.6
CCOC(=O)C1(Cc2ccccc2)CCN(Cc2cccc(OC)c2O)CC1	%	-22.2
COc1ccc(/C=C/C(=O)c2ccc(Nc3nc(NCCO)nc(Nc4ccc(Cl)cc4)n3)cc2)cc1	%	93.6
COC(=O)/C(CCC=C(C)C)=C1\[C@@H](OC(C)=O)C[C@@]2(C)[C@H]1C[C@@H](O)[C@H]1[C@@]3(C)CC[C@H](NCCO)[C@@H](C)[C@@H]3CC[C@@]12C	%	101
CCC1=C[C@@H]2CN(C1)Cc1c([nH]c3ccccc13)[C@@](C(=O)OC)(c1cc3c(cc1OC)N(C)[C@H]1[C@@](O)(C(=O)OC)[C@H](OC(C)=O)[C@]4(CC)[C@@H]5C[C@@H]5CN5CC[C@]31[C@@H]54)C2	%	20.1
CCN1C(=O)N(CC)C2Nn3c(s/c(=C\c4ccccc4F)c3=O)=NC21 (stereo not drawn)	%	14.9
